# Experimental System: mGluR5 receptor (Sus scrofa)
# Construct: 450 μg of protein from brain homogenate with 5 nM ^3[H]-MPEP; from tissue; host or cells: pig brain halves without medulla, cerebellum and pons
# Sequence (I3LUI7 19-1212): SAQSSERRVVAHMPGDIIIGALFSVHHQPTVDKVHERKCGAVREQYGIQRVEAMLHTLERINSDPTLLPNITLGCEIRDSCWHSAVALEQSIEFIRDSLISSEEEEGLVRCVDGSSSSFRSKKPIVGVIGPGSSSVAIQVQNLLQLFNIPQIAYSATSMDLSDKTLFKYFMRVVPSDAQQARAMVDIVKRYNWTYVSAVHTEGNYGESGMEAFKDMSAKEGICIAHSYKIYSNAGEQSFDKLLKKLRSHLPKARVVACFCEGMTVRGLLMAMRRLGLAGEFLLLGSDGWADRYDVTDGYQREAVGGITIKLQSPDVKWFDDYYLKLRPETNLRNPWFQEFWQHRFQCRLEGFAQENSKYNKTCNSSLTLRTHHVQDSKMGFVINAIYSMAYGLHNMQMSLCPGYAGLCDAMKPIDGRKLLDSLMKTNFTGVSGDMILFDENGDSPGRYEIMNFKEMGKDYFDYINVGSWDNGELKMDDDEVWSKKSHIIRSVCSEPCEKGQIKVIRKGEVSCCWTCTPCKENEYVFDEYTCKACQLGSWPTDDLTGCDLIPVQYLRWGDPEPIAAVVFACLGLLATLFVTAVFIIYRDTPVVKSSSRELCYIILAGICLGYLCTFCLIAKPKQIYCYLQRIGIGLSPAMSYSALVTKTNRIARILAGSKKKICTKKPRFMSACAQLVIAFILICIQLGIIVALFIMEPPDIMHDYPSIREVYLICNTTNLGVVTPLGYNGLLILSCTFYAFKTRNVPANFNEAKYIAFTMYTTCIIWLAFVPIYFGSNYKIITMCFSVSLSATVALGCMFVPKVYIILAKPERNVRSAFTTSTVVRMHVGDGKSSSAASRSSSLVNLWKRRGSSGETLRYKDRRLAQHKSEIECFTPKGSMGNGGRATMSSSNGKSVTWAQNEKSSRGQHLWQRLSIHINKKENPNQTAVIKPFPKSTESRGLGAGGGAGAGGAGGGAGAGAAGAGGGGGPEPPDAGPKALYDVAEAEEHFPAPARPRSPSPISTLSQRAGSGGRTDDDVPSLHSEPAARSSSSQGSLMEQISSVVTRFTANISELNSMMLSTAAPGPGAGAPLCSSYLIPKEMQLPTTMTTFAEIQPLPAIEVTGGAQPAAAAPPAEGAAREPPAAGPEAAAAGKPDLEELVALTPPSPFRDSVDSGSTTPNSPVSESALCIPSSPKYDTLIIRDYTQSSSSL
# Test Summary: [3H]-MPEP mGluR5 receptor binding assay (pig brain homogenate)
# Assay Setup: 10 μM compound, 5 nM [3H]-MPEP, read-out: % Inhibition of mGluR5 Receptor (pig) [^3H]-MPEP Bond at 10 μM
inhibition at 10 µM listing for selected compounds.
Report as a plain number; the unit % is understood.

Recorded inhibition at 10 µM, per entry:
O=C(CCc1ccccc1)N(Cc1cc(-c2ccc3ncnc(NC4CC4)c3c2)ccn1)C1CC1 [Example 847]    43
Cc1cc2ncnc(NC3CC3)c2cc1-c1cccc(CN(C(=O)C(C)(C)C)C2CC2)c1 [Example 719]    84

GET /value?item= CC(=O)N(C)Cc1cc(-c2ccc3ncnc(NCc4ccccc4)c3c2)ccc1F [Example 595] &field=inhibition at 10 µM returns 53
